Experiment: MRT in Wistar Han rat at 300 mg/kg, po by LC/MS method
Type: ADME, organism-based
Conditions: in vivo
ENDPOINT NAME: MRT
Entry format: amount then unit.

Looking up COC(=O)N[C@H](C(=O)N1CCC[C@H]1c1ncc(-c2cc(F)c3c(c2)O[C@@H](c2ccc(C4CC4)s2)n2c-3cc3cc(-c4cnc([C@@H]5CCCN5C(=O)[C@@H](NC(=O)OC)C5C[C@@H](C)O[C@@H](C)C5)[nH]4)ccc32)[nH]1)C(C)C (some centres undefined) , I see its MRT listed as 11 h

Looking up COC(=O)N[C@H](C(=O)N1CCC[C@H]1c1ncc(-c2cc(F)c3c(c2)O[C@@H](c2ccc(C4CC4)s2)n2c-3cc3cc(-c4cnc([C@@H]5CCCN5C(=O)[C@@H](NC(=O)OC)C5CCOCC5)[nH]4)ccc32)[nH]1)C(C)C , I see its MRT listed as 9.9 h

Looking up COC(=O)N[C@H](C(=O)N1CCC[C@H]1c1ncc(-c2cc(F)c3c(c2)O[C@@H](c2ccc(C4CC4)s2)n2c-3cc3cc(-c4cnc([C@@H]5CCCN5C(=O)[C@@H](NC(=O)OC)C5C[C@@H](C)O[C@H](C)C5)[nH]4)ccc32)[nH]1)C(C)C (some centres undefined) , I see its MRT listed as 9.3 h

Looking up COC(=O)N[C@H](C(=O)N1CCC[C@H]1c1ncc(-c2cc(F)c3c(c2)O[C@@H](c2ccc(C4CC4)s2)n2c-3cc3cc(-c4cnc([C@@H]5CCCN5C(=O)[C@@H](NC(=O)OC)[C@@H]5CCOC(C)(C)C5)[nH]4)ccc32)[nH]1)C(C)C , I see its MRT listed as 10.7 h

* * *

Assay: AUC in Wistar Han rat at 10 mg/kg, po by LC/MS method
Type: ADME, organism-based
Settings: in vivo
ENDPOINT NAME: AUC (µM·h)
Write it as a number; the unit µM·h goes unstated.

Looking up COC(=O)N[C@H](C(=O)N1CCC[C@H]1c1ncc(-c2cc(F)c3c(c2)O[C@@H](c2ccc4c(c2)OCCC4)n2c-3cc3cc(-c4cnc([C@@H]5CCCN5C(=O)[C@@H](NC(=O)OC)[C@@H]5CCOC(C)(C)C5)[nH]4)ccc32)[nH]1)C(C)C , I see its AUC listed as 0.08

Looking up COC(=O)N[C@H](C(=O)N1CCC[C@H]1c1ncc(-c2ccc3c(c2)cc2n3[C@H](c3ccc4c(c3)OCCC4)Oc3cc(-c4cnc([C@@H]5CCCN5C(=O)[C@@H](NC(=O)OC)C5CCOCC5)[nH]4)cc(F)c3-2)[nH]1)C(C)C , I see its AUC listed as 0.05

Looking up COC(=O)N[C@H](C(=O)N1CCC[C@H]1c1ncc(-c2cc(F)c3c(c2)O[C@@H](c2ccc(C4CC4)s2)n2c-3cc3cc(-c4cnc([C@@H]5CCCN5C(=O)[C@@H](NC(=O)OC)C5CC6CCC(C5)O6)[nH]4)ccc32)[nH]1)C(C)C (some centres undefined) , I see its AUC listed as 0.33

Looking up COC(=O)N[C@H](C(=O)N1CCC[C@H]1c1ncc(-c2ccc3c(c2)cc2n3[C@H](c3ccc(C4CC4)s3)Oc3cc(-c4cnc([C@@H]5CCCN5C(=O)[C@@H](NC(=O)OC)[C@@H]5CCOC(C)(C)C5)[nH]4)cc(F)c3-2)[nH]1)C(C)C , I see its AUC listed as 0.45

* * *

Would you mind telling me the reported concentration at 24 h of each entry?
Assay: Drug level in Wistar Han rat at 10 mg/kg, po measured at 24 hrs by LC/MS method
Assay type: ADME, organism-based
Settings: in vivo, read-out: Drug uptake
Write it as a number; the unit nM goes unstated.

Looking up COC(=O)N[C@H](C(=O)N1CCC[C@H]1c1ncc(-c2cc(F)c3c(c2)O[C@@H](c2ccc(C4CC4)s2)n2c-3cc3cc(-c4cnc([C@@H]5CCCN5C(=O)[C@@H](NC(=O)OC)C5CC6CCC(C5)O6)[nH]4)ccc32)[nH]1)C(C)C (stereo partly drawn) , I see its concentration at 24 h listed as 3

Looking up COC(=O)N[C@H](C(=O)N1CCC[C@H]1c1ncc(-c2cc(F)c3c(c2)O[C@@H](c2ccc4c(c2)OCCC4)n2c-3cc3cc(-c4cnc([C@@H]5CCCN5C(=O)[C@@H](NC(=O)OC)[C@@H]5CCOC(C)(C)C5)[nH]4)ccc32)[nH]1)C(C)C , I see its concentration at 24 h listed as 1

Looking up COC(=O)N[C@H](C(=O)N1CCC[C@H]1c1ncc(-c2cc(F)c3c(c2)O[C@@H](c2ccc(C4CC4)s2)n2c-3cc3cc(-c4cnc([C@@H]5CCCN5C(=O)[C@@H](NC(=O)OC)C5CCOC6(CC6)C5)[nH]4)ccc32)[nH]1)C(C)C (stereo partly drawn) , I see its concentration at 24 h listed as 4

Looking up COC(=O)N[C@H](C(=O)N1CCC[C@H]1c1ncc(-c2cc(F)c3c(c2)O[C@@H](c2cnc(C4CC4)s2)n2c-3cc3cc(-c4cnc([C@@H]5CCCN5C(=O)[C@@H](NC(=O)OC)[C@@H]5CCOC(C)(C)C5)[nH]4)ccc32)[nH]1)C(C)C , I see its concentration at 24 h listed as 4

Looking up COC(=O)N[C@H](C(=O)N1CCC[C@H]1c1ncc(-c2cc(F)c3c(c2)O[C@@H](c2ccc(C4CC4)s2)n2c-3cc3cc(-c4cnc([C@@H]5CCCN5C(=O)[C@@H](NC(=O)OC)[C@H]5CCOC(C)(C)C5)[nH]4)ccc32)[nH]1)C(C)C , I see its concentration at 24 h listed as 1

Looking up COC(=O)N[C@H](C(=O)N1CCC[C@H]1c1ncc(-c2cc(F)c3c(c2)O[C@@H](c2cc4c(s2)CCC4)n2c-3cc3cc(-c4cnc([C@@H]5CCCN5C(=O)[C@@H](NC(=O)OC)[C@@H]5CCOC(C)(C)C5)[nH]4)ccc32)[nH]1)C(C)C , I see its concentration at 24 h listed as 6

Looking up COC(=O)N[C@H](C(=O)N1CCC[C@H]1c1ncc(-c2ccc3c(c2)cc2n3[C@H](c3ccc(C4CC4)s3)Oc3cc(-c4cnc([C@@H]5CCCN5C(=O)[C@@H](NC(=O)OC)[C@@H]5CCOC(C)(C)C5)[nH]4)cc(F)c3-2)[nH]1)C(C)C , I see its concentration at 24 h listed as 4

* * *

Molecular target: UniProtKB Q5L478
Sequence (Q5L478 as listed by the source): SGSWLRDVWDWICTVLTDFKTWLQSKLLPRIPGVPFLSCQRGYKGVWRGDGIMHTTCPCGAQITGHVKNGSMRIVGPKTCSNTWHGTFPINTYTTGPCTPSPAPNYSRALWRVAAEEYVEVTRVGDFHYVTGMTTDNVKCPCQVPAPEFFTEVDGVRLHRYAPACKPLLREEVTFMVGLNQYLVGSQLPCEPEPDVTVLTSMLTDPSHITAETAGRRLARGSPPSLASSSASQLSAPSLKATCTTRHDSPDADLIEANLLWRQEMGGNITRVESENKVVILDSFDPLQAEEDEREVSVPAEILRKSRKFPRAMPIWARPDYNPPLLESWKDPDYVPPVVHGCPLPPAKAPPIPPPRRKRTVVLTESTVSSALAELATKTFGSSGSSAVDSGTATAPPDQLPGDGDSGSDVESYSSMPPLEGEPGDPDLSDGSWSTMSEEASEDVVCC
Test: Inhibition of NS5A in HCV genotype 4a infected in HuH7 replicon cells assessed as decrease in viral replication after 3 days by RT-PCR method
Assay type: cell-based
Settings: Hepatitis C virus subtype 4a
ENDPOINT NAME: EC90 (pM)
Write it as a number; the unit pM goes unstated.

Looking up CCCc1ncc([C@@H]2Oc3cc(-c4cnc([C@@H]5CCCN5C(=O)[C@@H](NC(=O)OC)C(C)C)[nH]4)cc(F)c3-c3cc4cc(-c5cnc([C@@H]6CCCN6C(=O)[C@@H](NC(=O)OC)[C@@H]6CCOC(C)(C)C6)[nH]5)ccc4n32)s1 , I see its EC90 listed as 6

Looking up COC(=O)N[C@H](C(=O)N1CCC[C@H]1c1ncc(-c2cc(F)c3c(c2)O[C@@H](c2ccc4c(c2)OCCC4)n2c-3cc3cc(-c4cnc([C@@H]5CCCN5C(=O)[C@@H](NC(=O)OC)[C@@H]5CCOC(C)(C)C5)[nH]4)ccc32)[nH]1)C(C)C , I see its EC90 listed as 5

Looking up COC(=O)N[C@H](C(=O)N1CCC[C@H]1c1ncc(-c2cc(F)c3c(c2)O[C@@H](c2ccc(C(C)C)s2)n2c-3cc3cc(-c4cnc([C@@H]5CCCN5C(=O)[C@@H](NC(=O)OC)[C@@H]5CCOC(C)(C)C5)[nH]4)ccc32)[nH]1)C(C)C , I see its EC90 listed as 6

Looking up CCc1ccc([C@@H]2Oc3cc(-c4cnc([C@@H]5CCCN5C(=O)[C@@H](NC(=O)OC)C(C)C)[nH]4)cc(F)c3-c3cc4cc(-c5cnc([C@@H]6CCCN6C(=O)[C@@H](NC(=O)OC)[C@@H]6CCOC(C)(C)C6)[nH]5)ccc4n32)s1 , I see its EC90 listed as 7

Looking up COC(=O)N[C@H](C(=O)N1CCC[C@H]1c1ncc(-c2cc(F)c3c(c2)O[C@@H](c2ccc(C(F)(F)F)s2)n2c-3cc3cc(-c4cnc([C@@H]5CCCN5C(=O)[C@@H](NC(=O)OC)C5CCOCC5)[nH]4)ccc32)[nH]1)C(C)C , I see its EC90 listed as 3

Looking up COC(=O)N[C@H](C(=O)N1CCC[C@H]1c1ncc(-c2cc(F)c3c(c2)O[C@@H](c2ccc(C4CC4)s2)n2c-3cc3cc(-c4cnc([C@@H]5CCCN5C(=O)[C@@H](NC(=O)OC)C5C[C@@H](C)O[C@@H](C)C5)[nH]4)ccc32)[nH]1)C(C)C (stereo partly specified) , I see its EC90 listed as 7

Looking up COC(=O)N[C@H](C(=O)N1CCC[C@H]1c1ncc(-c2cc(F)c3c(c2)O[C@@H](c2cc4c(s2)CCC4)n2c-3cc3cc(-c4cnc([C@@H]5CCCN5C(=O)[C@@H](NC(=O)OC)C5CCOCC5)[nH]4)ccc32)[nH]1)C(C)C , I see its EC90 listed as 4

Looking up COC(=O)N[C@H](C(=O)N1CCC[C@H]1c1ncc(-c2cc(F)c3c(c2)O[C@@H](c2ccc4c(c2)OCCC4)n2c-3cc3cc(-c4cnc([C@@H]5CCCN5C(=O)[C@@H](NC(=O)OC)C5CCOCC5)[nH]4)ccc32)[nH]1)C(C)C , I see its EC90 listed as 7

Looking up COC(=O)N[C@H](C(=O)N1CCC[C@H]1c1ncc(-c2cc(F)c3c(c2)O[C@@H](c2ccc(C4CC4)s2)n2c-3cc3cc(-c4cnc([C@@H]5CCCN5C(=O)[C@@H](NC(=O)OC)C5C[C@@H](C)O[C@H](C)C5)[nH]4)ccc32)[nH]1)C(C)C (stereo partly specified) , I see its EC90 listed as 7

Looking up COC(=O)N[C@H](C(=O)N1CCC[C@H]1c1ncc(-c2cc(F)c3c(c2)O[C@@H](c2cnc(C4CC4)s2)n2c-3cc3cc(-c4cnc([C@@H]5CCCN5C(=O)[C@@H](NC(=O)OC)[C@@H]5CCOC(C)(C)C5)[nH]4)ccc32)[nH]1)C(C)C , I see its EC90 listed as 7

Looking up COC(=O)N[C@H](C(=O)N1CCC[C@H]1c1ncc(-c2cc(F)c3c(c2)O[C@@H](c2nc4c(s2)CCC4)n2c-3cc3cc(-c4cnc([C@@H]5CCCN5C(=O)[C@@H](NC(=O)OC)[C@@H]5CCOC(C)(C)C5)[nH]4)ccc32)[nH]1)C(C)C , I see its EC90 listed as 7

Looking up COC(=O)N[C@H](C(=O)N1CCC[C@H]1c1ncc(-c2cc(F)c3c(c2)O[C@@H](c2cc4c(s2)CCC4)n2c-3cc3cc(-c4cnc([C@@H]5CCCN5C(=O)[C@@H](NC(=O)OC)[C@@H]5CCOC(C)(C)C5)[nH]4)ccc32)[nH]1)C(C)C , I see its EC90 listed as 6

Looking up COC(=O)N[C@H](C(=O)N1CCC[C@H]1c1ncc(-c2cc(F)c3c(c2)O[C@@H](c2cnc(C(C)C)s2)n2c-3cc3cc(-c4cnc([C@@H]5CCCN5C(=O)[C@@H](NC(=O)OC)[C@@H]5CCOC(C)(C)C5)[nH]4)ccc32)[nH]1)C(C)C , I see its EC90 listed as 7

Looking up COC(=O)N[C@H](C(=O)N1CCC[C@H]1c1ncc(-c2ccc3c(c2)cc2n3[C@H](c3ccc4c(c3)OCCC4)Oc3cc(-c4cnc([C@@H]5CCCN5C(=O)[C@@H](NC(=O)OC)C5CCOCC5)[nH]4)cc(F)c3-2)[nH]1)C(C)C , I see its EC90 listed as 2

Looking up CCCc1ccc([C@@H]2Oc3cc(-c4cnc([C@@H]5CCCN5C(=O)[C@@H](NC(=O)OC)C(C)C)[nH]4)cc(F)c3-c3cc4cc(-c5cnc([C@@H]6CCCN6C(=O)[C@@H](NC(=O)OC)C6CCOCC6)[nH]5)ccc4n32)s1 , I see its EC90 listed as 2

Looking up CCc1ccc([C@@H]2Oc3cc(-c4cnc([C@@H]5CCCN5C(=O)[C@@H](NC(=O)OC)[C@@H]5CCOC(C)(C)C5)[nH]4)cc(F)c3-c3cc4cc(-c5cnc([C@@H]6CCCN6C(=O)[C@@H](NC(=O)OC)C(C)C)[nH]5)ccc4n32)s1 , I see its EC90 listed as 106
